- tested.target: Recombinant human renin (Homo sapiens, UniProt P00797)
- Construct: isolate the active form (residues 67-406)
- Sequence (P00797 67-406): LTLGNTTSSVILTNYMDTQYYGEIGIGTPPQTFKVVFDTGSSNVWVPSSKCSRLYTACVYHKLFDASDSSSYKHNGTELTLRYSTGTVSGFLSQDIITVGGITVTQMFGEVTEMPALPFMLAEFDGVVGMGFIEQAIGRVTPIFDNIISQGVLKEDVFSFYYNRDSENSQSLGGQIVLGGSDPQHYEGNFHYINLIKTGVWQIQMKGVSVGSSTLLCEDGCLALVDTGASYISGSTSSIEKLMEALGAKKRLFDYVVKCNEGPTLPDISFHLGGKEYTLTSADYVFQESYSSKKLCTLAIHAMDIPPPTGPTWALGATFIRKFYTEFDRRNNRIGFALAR
- assay.procedure: In vitro enzymatic activity assay of renin inhibitors (fluorogenic peptide substrate)
- run.parameters: recombinant human renin 3 nM, 1 μM substrate QXL520/HiLyteFluo488 peptide, pH 7.4, 37° C., fluorescence; values given as ranges; read-out: IC50 of Exemplified Compounds Against Renin, IC50
experimental.readout: IC50

Please review the following examples before continuing.
1. O=C(c1ccccc1-c1ccccc1Cl)N1CCNC[C@H]1Cc1ccccc1: 1 to 50 µM
2. O=C1CC(C(=O)N2CCNC[C@H]2Cc2ccccc2)CN1C(c1ccccc1)c1ccccc1 (stereo partly shown): 1 to 50 µM

State recorded IC50 for all listed compounds.
1. N#Cc1ccccc1Oc1ccccc1-c1ccsc1C(=O)N1CCNC[C@H]1Cc1ccccc1
2. Cc1n[nH]c(C)c1-c1ccccc1C(=O)N1CCNC[C@H]1Cc1ccccc1

Outgoing:
["1 to 50 µM", "> 100 µM"]
